System: SK-MEL-28
experiment.notes: NCI tumour cell line growth inhibition, 48 h
Calls of active or inactive are those of the source. Cut-off read from the data, not from the text of the source: active = GI50 up to about 1.1 µM and inactive = higher. *1 amine or outer side, *2 acyl side, *3 side chain or, on linkers, in order; H or OH if unused. Where a SMILES comes first, the peptide text is derived from it. Bridges are numbered along the chain shown (N, C = ends). Roman numbers before positions name the chains, in order. [ ]: non-standard residue; d: D form. Actinocin(1to9) = Cc1c2oc3c(C)ccc(C(=O)[*:2])c3nc-2c(C(=O)[*:1])c(N)c1=O; NMeV = CN[CH](C(=O)O)C(C)C; Sar = CNCC(=O)O
One label from this list, please: TRUE (active), FALSE (inactive)

FC(F)(F)C1(C(F)(F)F)C2CCC3(CC(F)(F)C(F)(F)S3)C1C2 (configuration not stated) ... FALSE

Q: // param item: COc1ccc(CC2NC(=O)C(NC(=O)c3c4nc5c(C(=O)NC6C(=O)NC(Cc7ccc(OC)cc7)C(=O)N7CCCC7C(=O)N(C)CC(=O)N(C)C(C(C)C)C(=O)OC6C)ccc(C)c5oc-4c(C)c(=O)c3N)C(C)OC(=O)C(C(C)C)N(C)C(=O)CN(C)C(=O)C3CCCN3C2=O)cc1 (configuration not stated) (I: TY(Me)P[Sar][NMeV] / II: TY(Me)P[Sar][NMeV]; ester I:1-I:C, II:1-II:C; linker I:N-II:N via Actinocin(1to9); configuration not given here) ; yields the recorded call
Ans: TRUE

Q: // param item: Cc1ccc(OCC(=O)N2N=C(c3ccccc3)CC2(O)c2ccccc2)cc1 (configuration not stated) ; yields the recorded call
Ans: FALSE

Q: // param item: CC(=O)N1C/C(=C\c2ccccc2)C(=O)/C(=C/c2ccccc2)C1 ; yields the recorded call
Ans: FALSE

Q: // param item: CCC12CCCN(Cc3ccccc3)C1c1c(n(C)c3ccccc13)CC2 (configuration not stated) ; yields the recorded call
Ans: FALSE

Q: // param item: Nc1ccc(C(=O)Nn2c(-c3ccccc3)nc3ccccc3c2=O)cc1 ; yields the recorded call
Ans: FALSE
